# assay-remarks: TIMS collisional cross section (CCS, N2) of the lipid ion; higher = larger ion cross section
# condition-info: sample type: HeLa; ionization mode: positive; one isomer drawn
Classification field: 1 (yes) = TIMS collisional cross section at or over 300 Å²; 0 (no) = TIMS collisional cross section under 300 Å².

INPUT: API: above_or_equal(metric=TIMS collisional cross section, cutoff=300 Å²) for item CCCCCCCC/C=C\CCCCCCCCCC(=O)OC[C@@H](COC(=O)CCCCCCCCCCCCCCC)OC(=O)CCCCCCCCCCCCCCC [TG 16:0_16:0_20:1] (ion (formula + adduct): [C55H104O6+NH4] 1+)
OUTPUT: 1 (yes)

INPUT: Does the compound CCCCCCCCCCCCCC(=O)OC[C@@H](O)COP(=O)([O-])OCC[N+](C)(C)C [LPC 14:0_0:0] (ion (formula + adduct): [C22H46NO7P+H] 1+) have recorded TIMS collisional cross section that is 300 Å² or more?
OUTPUT: 0 (no)

INPUT: TIMS collisional cross section >= 300 Å² for CCCCCCCC/C=C\CCCCCCCCCC(=O)O[C@H](CO/C=C\CCCCCCCCCCCCCC)COP(=O)(O)OCCN [PE P- 16:0@_20:1] (ion (formula + adduct): [C41H80NO7P+H] 1+) ?
OUTPUT: 0 (no)

INPUT: Item CCC/C=C\CCCCCCCC/C=C/[C@@H](O)[C@H](COP(=O)([O-])OCC[N+](C)(C)C)NC(=O)CCCCCCCCCCCCC [SM d18:2_14:0@] (ion (formula + adduct): [C37H73N2O6P+H] 1+) with TIMS collisional cross section of 300 Å² or above?
OUTPUT: 0 (no)

INPUT: Form field: TIMS collisional cross section at least 300 Å²? Entry: CC/C=C\C/C=C\C/C=C\C/C=C\C/C=C\CCCCCC(=O)OC[C@@H](COC(=O)CCCCCCC/C=C\CCCCCCC)OC(=O)CCCCCCC/C=C\CCCCCCCC [TG 17:1_18:1_22:5] (ion (formula + adduct): [C60H102O6+NH4] 1+)
OUTPUT: 1 (yes)

INPUT: Assess whether reported TIMS collisional cross section for CCCCCCCC/C=C\CCCCCCCC(=O)OC[C@H](COC(=O)CCCCCCCCCCCCCCCCCCCC)OC(=O)CCCCCCCCCCCCCCCCCCC [TG 18:1_20:0_21:0] (ion (formula + adduct): [C62H118O6+NH4] 1+) sits at 300 Å² or higher.
OUTPUT: 1 (yes)
